biological target: human Factor IXa (human, UniProt P00740 47-191; P00740 227-461); experiment: cell-based or functional assay
Square brackets hold non-standard residues; d marks the D form. Ends that are not written are not given here.
Property Label: EC50 [µM], FXa generation assay

Entry KKLTCLASYCWLF (not fully specified; D-Lys 1, D-Lys 2, MeLeu 3) [k-k-MeLeu-TCLASYCWLF] : reported EC50 [µM], FXa generation assay = ?
> 2.5 µM

Continuing:
Entry RQLWNKLTCLASYCALIGLSGT : reported EC50 [µM], FXa generation assay = ?
> 1 µM

Entry WHERQQLTCLASYCGLFVGQVA : reported EC50 [µM], FXa generation assay = ?
< 0.5 µM

Entry SKQGRPISPA[dR]RAAGKLTCLASYCWLFWTGIA (not fully specified; printed as SKQGRPISPArRAAGKLTCLASYCWLFWTGIA; cysteine pairing not given here) [SKQGRPISPArRAAGKLTCLASYCWLFWTGIA] : reported EC50 [µM], FXa generation assay = ?
< 0.5 µM
